- Tested on: OVCAR-8
- assay_method_text: NCI tumour cell line growth inhibition, 48 h
Activity calls are given as the source filed them. Rule as the data show it: active = GI50 up to about 1.1 µM and inactive = higher.
Assign a class; possible classes are TRUE (active), FALSE (inactive)

Please share the test call associated with `Nc1[nH]nc2ccccc12` .
FALSE

Please share the test call associated with `CC1=C2C(=O)c3ccccc3C(=O)[C@H]2[C@H]2CCO[C@H]2O1` .
FALSE

Please share the test call associated with `COc1ccc(-c2c3c(cc4cc5c(cc24)OCO5)C(=O)OC3)cc1OC` .
TRUE

Please share the test call associated with `O=[N+]([O-])c1ccc(Sc2c3ccccc3nc3ccccc23)nc1` .
FALSE

Please share the test call associated with `COc1c(C)c(C/C=C(\C)CCCCO)c(OC)c(OC)c1OC` .
FALSE

Please share the test call associated with `Cc1nnc2c3nnc(C)n3c3ccccc3n12` .
FALSE
